I'd be grateful if you could share measured RA (%) relative activity for these entries.
# TESTED_ON: UniProt:Q91X52
# PROCEDURE_DETAILS: Dicarbonyl reductase activity assay: substrate specificity and rate constants (NAD(P)H oxidation at 340 nm)
# ASSAY_CONTEXT: substrate concentration 500 μM; against a reference of 100 for diacetyl
Give bare numbers, in %.

[[record]]
compound = "O=C1O[C@H]([C@@H](O)CO)C(=O)C1=O [Dehydroascorbic acid]"
recorded_measurement = 0

[[record]]
compound = "CC12CCC(C(=O)C1=O)C2(C)C (stereo not shown)"
recorded_measurement = 6

[[record]]
compound = "CC(=O)C=Cc1ccccc1"
recorded_measurement = 0


Now for another entry.
Inquiry: Form: Entry = COc1cccc2c1C(=O)c1c(O)c3c(c(O)c1C2=O)C[C@@](O)(C(C)=O)C[C@@H]3O[C@H]1C[C@H](N)[C@H](O)[C@H](C)O1 | System = UniProt:Q91X52 | RA (%) relative activity = ____
Reply text: 1.1

---

# TESTED_ON: protein hDCR1 (Homo sapiens, UniProt Q7Z4W1)
# Sequence (Q7Z4W1 whole entry): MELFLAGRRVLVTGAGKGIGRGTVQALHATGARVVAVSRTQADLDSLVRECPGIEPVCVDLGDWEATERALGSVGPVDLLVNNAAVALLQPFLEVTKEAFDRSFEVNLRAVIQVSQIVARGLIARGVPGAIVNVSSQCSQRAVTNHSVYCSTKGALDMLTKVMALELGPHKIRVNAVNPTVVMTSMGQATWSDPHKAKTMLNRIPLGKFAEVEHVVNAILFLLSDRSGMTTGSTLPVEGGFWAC
# PROCEDURE_DETAILS: Dicarbonyl reductase activity assay: substrate specificity (NAD(P)H oxidation at 340 nm)
# ASSAY_CONTEXT: substrate concentration 1,000 μM; against a reference of 100 for diacetyl
Can you tell me RA (%) relative activity for the items I'm about to list?
Numbers only, in %.

Some solved entries appear below for comparison.
[[record]]
molecule = "CCC(=O)C(=O)CC [3,4-Hexanedione]"
u = "%"
recorded_measurement = 170

[[record]]
molecule = "O=C(c1ccccc1)c1ccncc1 [4-Benzoylpyridine]"
u = "%"
recorded_measurement = 39


Batch of 2 molecules: report RA (%) relative activity for each.
1. CCC(=O)C(C)=O [2,3-Pentanedione]
2. CC(=O)c1ccc([N+](=O)[O-])cc1 [4-Nitroacetophenone]

Reply text:
1: 167; 2: 0

Batch lookup, RA (%) relative activity per entry.
1. CCOC(=O)C(C)=O [Pyruvic acid ethyl ester]
2. CCCCC(=O)C(C)=O [2,3-Heptanedione]

Reply text:
1: 33; 2: 174

---

Please provide measured inhibition at 100 µM for the entries that follow.
# TESTED_ON: hamster liver diacetyl reductase (Hamster DR) (Mesocricetus auratus, UniProt Q91XV4)
# Construct: from tissue; host or cells: hamster liver
# Sequence (Q91XV4 whole entry): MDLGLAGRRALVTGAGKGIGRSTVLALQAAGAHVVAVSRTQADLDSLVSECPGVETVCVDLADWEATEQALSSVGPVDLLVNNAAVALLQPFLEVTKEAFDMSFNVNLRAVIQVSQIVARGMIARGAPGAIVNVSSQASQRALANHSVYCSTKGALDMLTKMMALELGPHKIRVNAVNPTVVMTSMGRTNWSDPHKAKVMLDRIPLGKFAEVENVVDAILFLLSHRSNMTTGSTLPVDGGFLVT
# PROCEDURE_DETAILS: Inhibition of the enzyme reaction
# Format: biochemical
# ASSAY_CONTEXT: read-out: Inhibition (%) Hamster DR
Numbers only, in %.

Completed entries (count: 2):
[[record]]
cpd_smiles = "Nc1ccccc1C(=O)O"
tested_on = "hamster liver diacetyl reductase (Hamster DR) (Mesocricetus auratus, UniProt Q91XV4)"
recorded_measurement = 42

[[record]]
cpd_smiles = "O=C1NC(=O)C(c2ccccc2)(c2ccccc2)N1"
tested_on = "hamster liver diacetyl reductase (Hamster DR) (Mesocricetus auratus, UniProt Q91XV4)"
recorded_measurement = 2


Batch lookup, inhibition at 100 µM per entry.
1. O=C(O)c1ccccc1
2. O=C(O)CC1(CC(=O)O)CCCC1

Reply text:
59
63

---

# TESTED_ON: protein DCR1 (Mus musculus)
# PROCEDURE_DETAILS: Dicarbonyl reductase activity assay: substrate specificity and rate constants (NAD(P)H oxidation at 340 nm)
# Protocol: The enzyme activity assay method is not particularly restricted, and it may be based on the activity assay method for mouse carbonyl reductase (CR) (Eur. J. Biochem. 22, 381-387(1995)). […] • (1) This was assayed under the following conditions. […] The oxidation rate for NAD(P)H was measured at 340 nm.
Kindly state RA (%) relative activity for each of the entries shown.
One number for each entry, in %.

[[record]]
molecule = "C[C@]12CCC(=O)C[C@@H]1CC[C@@H]1[C@@H]2CC[C@]2(C)C(=O)CC[C@@H]12 [5α-Androstane-3,17-dione]"
measurement_kind = "RA (%) relative activity"
recorded_measurement = 0.0

[[record]]
molecule = "C[C@]12CCC(=O)C[C@H]1CC[C@@H]1[C@@H]2CC[C@]2(C)C(=O)CC[C@@H]12 [5β-Androstane-3,17-dione]"
measurement_kind = "RA (%) relative activity"
recorded_measurement = 0.0

[[record]]
molecule = "CCC(C)=O [2-Butanone]"
measurement_kind = "RA (%) relative activity"
recorded_measurement = 0


List reported RA (%) relative activity for each of these molecules:
1. C[C@]12CC[C@@H](O)C[C@H]1CC[C@@H]1[C@@H]2[C@@H](O)C[C@]2(C)[C@@H](C(=O)CO)CC[C@@H]12 [Tetrahydrocorticosterone]
2. CCC(=O)C(C)=O [2,3-Pentanedione]

Reply text:
[0.0, 163]

---

# Tested on: dicarbonyl reductase of the invention
# PROCEDURE_DETAILS: Substrate reactivity features summarised from Tables 1, 2 and 3
# Type: biochemical
# ASSAY_CONTEXT: summary in words of Tables 1, 2 and 3
MEASUREMENT_KIND: reactivity (as substrate)

The cases that follow already have their reactivity (as substrate) on record.
[[record]]
compound = "CCC(=O)C(=O)CC [3,4-Hexanedione]"
recorded_measurement = "strong reactivity"

[[record]]
compound = "CCC(=O)C(C)=O [2,3-Pentanedione]"
recorded_measurement = "strong reactivity"

[[record]]
compound = "O=C(CBr)C(=O)CBr [1,4-dibromo-2,3-butanedione]"
recorded_measurement = "strong reactivity"

[[record]]
compound = "CC(=O)C(=O)c1ccccc1 [1-Phenyl-1,2-propanedione]"
recorded_measurement = "strong reactivity"

[[record]]
compound = "CCCC(=O)C(C)=O [2,3-Hexanedione]"
recorded_measurement = "strong reactivity"


Go through the list and state reactivity (as substrate) for each entry.
1. O=C1C(=O)c2cccc3cccc1c23 [Acenaphthenequinone]
2. CCCCC(=O)C(C)=O [2,3-Heptanedione]

Reply text:
1. strong reactivity
2. strong reactivity

Inquiry: So what does the record say about reactivity (as substrate) for O=C1Nc2ccccc2C1=O [Isatin] ?
Reply text: strong reactivity

---

# TESTED_ON: protein DCR1 (Mus musculus)
# PROCEDURE_DETAILS: Dicarbonyl reductase activity assay: substrate specificity and rate constants (NAD(P)H oxidation at 340 nm)
# ASSAY_CONTEXT: substrate concentration 1,000 μM; against a reference of 100 for diacetyl
# Experimental: The enzyme activity assay method is not particularly restricted, and it may be based on the activity assay method for mouse carbonyl reductase (CR) (Eur. J. Biochem. 22, 381-387(1995)). […] • (1) This was assayed under the following conditions. […] The oxidation rate for NAD(P)H was measured at 340 nm.
MEASUREMENT_KIND: RA (%) relative activity
# output: numeric value plus its unit

Some solved cases for reference:
[[record]]
compound = "O=C1C=CCCC1"
tested_on = "protein DCR1 (Mus musculus)"
measurement_kind = "RA (%) relative activity"
recorded_measurement = "1.3%"

[[record]]
compound = "CCOC(=O)C(C)=O"
tested_on = "protein DCR1 (Mus musculus)"
measurement_kind = "RA (%) relative activity"
recorded_measurement = "35.2%"

[[record]]
compound = "O=C[C@H](O)[C@@H](O)[C@H](O)[C@H](O)C(=O)O [D-Glucuronate]"
tested_on = "protein DCR1 (Mus musculus)"
measurement_kind = "RA (%) relative activity"
recorded_measurement = "0%"

[[record]]
compound = "CCCCC(=O)C(C)=O"
tested_on = "protein DCR1 (Mus musculus)"
measurement_kind = "RA (%) relative activity"
recorded_measurement = "134%"

[[record]]
compound = "O=C(O)CCC(=O)C(=O)O"
tested_on = "protein DCR1 (Mus musculus)"
measurement_kind = "RA (%) relative activity"
recorded_measurement = "0%"


Answer for every listed entry: what is its RA (%) relative activity? The entries follow.
1. O=C(O)C(=O)[C@@H](O)[C@H](O)[C@@H](O)CO [2-Ketogulonate]
2. O=CC(O)CO (racemic)
3. CCOC(=O)CC(C)=O [Ethyl acetoacetate]

Reply text:
["0%", "10.4%", "0%"]

---

Give measured RA (%) relative activity for each item. Keep answers brief.
# TESTED_ON: protein DCR1 (Mus musculus, UniProt Q91X52)
# Sequence (Q91X52 whole entry): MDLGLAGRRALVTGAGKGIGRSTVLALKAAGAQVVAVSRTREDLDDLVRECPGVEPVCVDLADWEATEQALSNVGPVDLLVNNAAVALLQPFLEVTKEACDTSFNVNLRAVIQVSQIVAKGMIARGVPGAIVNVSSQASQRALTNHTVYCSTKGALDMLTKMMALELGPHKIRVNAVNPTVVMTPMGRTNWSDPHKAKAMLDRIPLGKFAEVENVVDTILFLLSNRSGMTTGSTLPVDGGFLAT
# PROCEDURE_DETAILS: Dicarbonyl reductase activity assay: substrate specificity and rate constants (NAD(P)H oxidation at 340 nm)
# ASSAY_CONTEXT: substrate concentration 1,000 μM; against a reference of 100 for diacetyl
Give me the value, and tack the unit on after it.

[[record]]
compound = "CC(=O)c1ccc([N+](=O)[O-])cc1 [4-Nitroacetophenone]"
tested_on = "protein DCR1 (Mus musculus, UniProt Q91X52)"
measurement_kind = "RA (%) relative activity"
recorded_measurement = "0%"

[[record]]
compound = "CC(=O)CCC(C)=O [2,5-Hexanedione]"
tested_on = "protein DCR1 (Mus musculus, UniProt Q91X52)"
measurement_kind = "RA (%) relative activity"
recorded_measurement = "0%"

[[record]]
compound = "O=Cc1ccc([N+](=O)[O-])cc1 [4-Nitrobenzaldehyde]"
tested_on = "protein DCR1 (Mus musculus, UniProt Q91X52)"
measurement_kind = "RA (%) relative activity"
recorded_measurement = "3.3%"

[[record]]
compound = "C[C@@H](O)C=O [D-Lactoaldehyde]"
tested_on = "protein DCR1 (Mus musculus, UniProt Q91X52)"
measurement_kind = "RA (%) relative activity"
recorded_measurement = "0.6%"


Hey, can you go through the list below and give me RA (%) relative activity for every item?
1. CC(=O)C(=O)c1ccccc1 [1-Phenyl-1,2-propanedione]
2. CCC(=O)C(=O)CC [3,4-Hexanedione]

Reply text:
1: 148%; 2: 232%

Source listed as patent EP1063290A1.
